- assay explanation: Metabolic stability in human S9 fraction
- Assay type: in vitro ADME
- experimental setup: read-out: Half life, t1/2 S9
# strict inequality: half-life < 10 min yields Met, everything else yields Not met

Worked examples, 5 compounds total:
| compound | assigned label |
| --- | --- |
| COc1ccc(F)cc1/C=C/C(=O)/C=C(O)/C=C/c1cc(F)ccc1OC | Met |
| CN(C)c1ccc(/C=C/C(=O)/C=C(O)/C=C/c2ccc(N(C)C)cc2)cc1 | Not met |
| COc1cc(N(C)C)ccc1/C=C/C(O)=C1\CCC/C(=C\c2ccc(N(C)C)cc2OC)C1=O | Not met |
| O=C(/C=C(O)/C=C/c1ccc(O)cc1)/C=C/c1ccc(O)cc1 [Compound 1, reference compound] | Met |
| COc1cc(/C=C/C(=O)/C=C(O)/C=C/c2ccc(OC(=O)C(N)CCCCN)c(OC)c2)ccc1OC(=O)C(N)CCCCN (stereo not drawn) | Met |

Query string: Would you kindly verify if half-life of "O=C(/C=C(O)/C=C/c1cccc(O)c1)/C=C/c1cccc(O)c1" is strictly less than 10 min?
Result string: Met

Query string: Report whether reported half-life is lower than 10 min (strictly) for "COc1ccccc1/C=C/C(=O)/C=C(O)/C=C/c1ccccc1OC"
Result string: Not met

---

- assay explanation: Chemical stability (H2O, pH 7.4)
- Format: physicochemical
- experimental setup: water; H2O; read-out: Chemical stability t1/2 H2O (converted)
half-life overview
Output spec: scalar in h, unitless text.

| molecule | metric | unit of measurement | experimental result |
| --- | --- | --- | --- |
| COc1cc(/C=C/C(=O)/C=C(O)/C=C/c2ccc(O)c(OC)c2)ccc1O [Compound 2, reference compound] | half-life | h | 1.23 |
| O=C1/C(=C(O)/C=C/c2ccc(O)cc2)CCC/C1=C\c1ccc(O)cc1 | half-life | h | 4.07 |

Please examine the following record next.
Query string: May I ask what half-life has been recorded for CC(C)C(N)C(=O)Oc1ccc(/C=C/C(=O)C2CCC/C(=C\c3ccc(OC(=O)C(N)C(C)C)cc3)C2=O)cc1 (stereo not drawn) ?
Result string: 1.6

---

The following compounds are listed with their measured pIC50 values.
- assay explanation: Anti-oxidant activity
pIC50: −log10 of the molar value.

Recorded results for 5 compounds are shown here.
| compound | metric | experimental result |
| --- | --- | --- |
| CC(C)C(N)C(=O)Oc1ccc(/C=C/C(=O)/C=C(O)/C=C/c2ccc(OC(=O)C(N)C(C)C)cc2)cc1 (stereo not drawn) [Compound 33] | pIC50 | < 3.60 |
| O=C(/C=C(\O)CCc1ccc(O)cc1)CCc1ccc(O)cc1 [Compound 5] | pIC50 | < 3.60 |
| O=C1C(=Cc2ccc(O)cc2)COCC1=Cc1ccc(O)cc1 [Compound 15] | pIC50 | < 3.60 |
| CC/C(C(=O)/C=C/c1ccc(N(C)C)cc1OC)=C(O)\C=C\c1ccc(N(C)C)cc1OC [Compound 13] | pIC50 | 4.17 |
| O=C1/C(=C(O)/C=C/c2ccc(O)cc2)CCC/C1=C\c1ccc(O)cc1 [Compound 6] | pIC50 | < 3.60 |

Query string: I would be grateful if you could share the reported pIC50 for CC(C)C(N)C(=O)Oc1ccc(/C=C/C(=O)C2CCC/C(=C\c3ccc(OC(=O)C(N)C(C)C)cc3)C2=O)cc1 (stereo not drawn) [Compound 37] .
Result string: < 3.60
